assay_details: Caco2 permeability (bi-directional)
Format: in vitro ADME, human
test_conditions: human, pH 7.4; Caco-2, ratio of PappB>A/PappA>B
recorded_endpoint: efflux ratio at 1 h, 10 µM
Please reply with the number alone, leaving off any unit.

Reported efflux ratio at 1 h, 10 µM of `Cc1n[nH]c(C)c1CCOc1ccc(-c2cccc3nc(NC(=O)C4CC4)nn23)cc1` : 3.64

Reported efflux ratio at 1 h, 10 µM for `O=C(Nc1nc2cccc(-c3ccc(C(=O)N4CCS(=O)(=O)CC4)cc3)n2n1)C1CC1` was 104

Sample `NC(=O)c1ccc(COc2ccc(-c3cccc4nc(NC(=O)C5CC5)nn34)cc2)cn1` ; efflux ratio at 1 h, 10 µM observed: 2

Next, consider the following molecule.
Given item O=C(Nc1nc2cccc(-c3ccc(C(=O)N4CCCC(C(F)(F)F)C4)cc3)n2n1)C1CC1 (stereo not shown) , the value recorded as its efflux ratio at 1 h, 10 µM is 2.5

Data origin, for the record: patent US10206907B2
